tested on: ZNF721 DBD2 (Homo sapiens, UniProt Q8TF20-2 395-923)
Sequence (Q8TF20 383-911): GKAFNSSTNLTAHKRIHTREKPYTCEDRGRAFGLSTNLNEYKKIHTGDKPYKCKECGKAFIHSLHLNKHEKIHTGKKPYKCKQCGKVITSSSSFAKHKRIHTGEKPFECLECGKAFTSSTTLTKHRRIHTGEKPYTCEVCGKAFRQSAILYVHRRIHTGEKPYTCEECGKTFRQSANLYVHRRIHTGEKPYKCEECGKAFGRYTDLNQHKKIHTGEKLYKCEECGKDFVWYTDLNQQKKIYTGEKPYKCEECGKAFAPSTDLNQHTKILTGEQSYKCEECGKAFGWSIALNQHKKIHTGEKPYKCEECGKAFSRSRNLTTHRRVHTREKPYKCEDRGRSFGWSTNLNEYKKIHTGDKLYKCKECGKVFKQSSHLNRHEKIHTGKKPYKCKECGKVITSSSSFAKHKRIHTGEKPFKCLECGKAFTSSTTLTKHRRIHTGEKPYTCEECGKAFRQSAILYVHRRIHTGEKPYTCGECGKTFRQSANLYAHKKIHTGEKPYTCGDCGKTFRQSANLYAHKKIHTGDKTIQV
assay: HT-SELEX; 20 mM HEPES pH 7, 140 mM KCl, 5 mM NaCl, 1 mM K2HPO4, 2 mM MgSO4, 100 uM EGTA, ZnSO4, 0.1% Tween20; room temperature, 1 h; high values mean tight binding
recorded conditions: protein: ivt; tags: eGFP (N-terminal); dsDNA, one strand shown
One threshold, 0.003 relative 10-mer count, splits the recorded binding signal values: lower ones are class 1, equal or higher ones are class 0.

> print(dat)
   sequence.data                                 tested.on  class.label
1     ACCCGCCCAC  ZNF721 DBD2 (Homo sapiens, UniProt Q8TF20-2 395-923)      class 1
2     CAAAAAAAAC  ZNF721 DBD2 (Homo sapiens, UniProt Q8TF20-2 395-923)      class 0
3     CAGTGTTGCC  ZNF721 DBD2 (Homo sapiens, UniProt Q8TF20-2 395-923)      class 0
4     CACCCCCGCC  ZNF721 DBD2 (Homo sapiens, UniProt Q8TF20-2 395-923)      class 1
5     CCGCCGCCCC  ZNF721 DBD2 (Homo sapiens, UniProt Q8TF20-2 395-923)      class 1
6     CCCCTCCACC  ZNF721 DBD2 (Homo sapiens, UniProt Q8TF20-2 395-923)      class 0
7     AAAGGAACAG  ZNF721 DBD2 (Homo sapiens, UniProt Q8TF20-2 395-923)      class 0
